Test Protocol: Pharmacokinetics of ginsenosides in plasma after a single oral dose of 6 g FRG or RG, crossover clinical trial
Assay type: in vivo, human
Measurement Context: human, plasma, po, plasma, after 6 g FRG oral single dose, mean ± SD; read-out: AUClast
Assay Endpoint: AUC(0-t)
Write down the value, and be sure its unit follows.

# lookup: AUC(0-t) of "CC(C)=CCC[C@](C)(O)[C@H]1CC[C@]2(C)[C@@H]1[C@H](O)C[C@@H]1[C@@]3(C)CC[C@H](O)C(C)(C)[C@@H]3CC[C@]12C"
92.2 ng·h/mL

* * *

Test Protocol: Pharmacokinetics of ginsenosides in plasma after a single oral dose of 6 g FRG or RG, crossover clinical trial
Type: in vivo, human
Measurement Context: human, in vivo, po, plasma, after 6 g RG oral single dose, healthy volunteers, mean ± SD, n = 15; read-out: Cmax
Assay Endpoint: Cmax
The reply should read as a number followed by its unit.

Name the recorded Cmax for CC(C)=CCC[C@](C)(O)[C@H]1CC[C@]2(C)[C@@H]1[C@H](O)C[C@@H]1[C@@]3(C)CC[C@H](O[C@@H]4O[C@H](CO)[C@@H](O)[C@H](O)[C@H]4O)C(C)(C)[C@@H]3CC[C@]12C [Rh2] .
1.77 ng/mL

Cited source: paper PMC9784495
